So I've got a bunch of molecules here, and I need their logP values.
ASSAY_INFO: logP determination via retention times, calibrated with unbranched alkan-2-ones
Format: physicochemical
TEST_PARAMETERS: method **: HPLC reversed-phase C 18, temperature 43° C.; mobile phase 0.1% aqueous phosphoric acid and acetonitrile; linear gradient 10% to 95% acetonitrile

COc1ccc(Nc2ncc(C(F)(F)F)c(NC3CC3)n2)cc1 [compound 641]    2.41**
CNC(=O)c1cccc(Nc2ncc(C(F)(F)F)c(NC3CC3)n2)c1 [compound 652]    1.78**
O=C1CCCN1c1cc(F)cc(Nc2ncc(Cl)c(NC3CC3)n2)c1 [compound 625]    1.83**

Attention now shifts to the item below.
Q: Using the record for CNC(=O)c1ccc(Nc2ncc(C(F)(F)F)c(NC3CC3)n2)cc1 [compound 651] , report its logP.
Result: 1.81**
